Tested on: Human betaherpesvirus 5
Assay: Antiviral activity against human cytomegalovirus infected HEL cells after 7 days by
Format: functional, organism-based
Details: Human betaherpesvirus 5, HEL, 168 h
parameter: IC50 (µM)
The answer is to be given in µM; state only the numeric part.

Input line: What value of IC50 has been reported for the following compound? COC(=O)/C1=C/CC/C(C)=C/[C@@H]2OCC(C)=C2CC[C@@]2(C)O[C@@H]2CC1
Output line: 5.8

Input line: Need IC50 of C/C1=C\C=C(\C(C)C)CC[C@@]2(C)O[C@H](C1)C[C@@](C)(O)CC[C@@H]2O [EHRENBEROXIDE B] , thanks.
Output line: 4.7

Input line: What value of IC50 has been reported for the following compound? COC(C)(C)/C1=C/C=C(\C)CC[C@@H]2O[C@@]2(C)CC/C=C(/C(=O)O)CC1 [EHRENBEROXIDE A]
Output line: 24.8
